Measured values drawn from patent US8691753B2 for this set.

- subject-of-test: MMP-2h (Homo sapiens (Human), UniProt P08253)
- Sequence (P08253 110-660): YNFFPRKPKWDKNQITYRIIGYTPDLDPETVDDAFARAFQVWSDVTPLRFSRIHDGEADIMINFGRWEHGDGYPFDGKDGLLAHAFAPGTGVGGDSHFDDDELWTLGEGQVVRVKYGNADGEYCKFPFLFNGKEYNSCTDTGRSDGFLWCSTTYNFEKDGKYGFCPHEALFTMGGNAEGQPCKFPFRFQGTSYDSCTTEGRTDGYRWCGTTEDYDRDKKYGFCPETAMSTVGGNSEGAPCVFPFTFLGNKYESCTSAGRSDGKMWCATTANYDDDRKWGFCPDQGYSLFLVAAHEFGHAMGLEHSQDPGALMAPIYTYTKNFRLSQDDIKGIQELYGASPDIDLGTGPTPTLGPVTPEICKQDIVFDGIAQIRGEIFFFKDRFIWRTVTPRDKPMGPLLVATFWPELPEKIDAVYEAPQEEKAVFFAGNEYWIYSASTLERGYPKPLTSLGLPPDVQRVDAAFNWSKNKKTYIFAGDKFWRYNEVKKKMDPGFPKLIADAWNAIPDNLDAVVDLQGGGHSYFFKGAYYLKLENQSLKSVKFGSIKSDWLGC
- method-summary: Inhibition constant (Ki) on MMP-2h
- Type: biochemical
- setup-conditions: read-out: Ki MMP-2h; human MMP-2
- Source text: The inhibition constant Ki of these compounds has been determined according to the protocol described by Devel et al, 2006, J. Biol. Chem. (7). In this table I and also in table II below, “h” corresponds to human. All of the compounds have therefore been evaluated on human MMPs.
pKi: −log10 of the molar value.
Hi there, I'd appreciate the recorded pKi for every entry that follows.

Tell me the measured pKi of NC(=O)[C@H](CCC(=O)O)NC(=O)[C@H](Cc1cnc[nH]1)NC(=O)CCc1ccc(-c2cc(-c3ccccc3)cs2)cc1 , please.
< 5.30

Consider next the compound Cc1nc(-c2ccc(CCC(=O)N[C@@H](CCC(=O)O)C(=O)N[C@@H](CCC(=O)O)C(N)=O)cc2)no1 in the same way.
< 5.30

Try this compound too: NC(=O)[C@H](CCC(=O)O)NC(=O)[C@H](CCC(=O)O)NC(=O)CCc1noc(-c2ccccc2)n1
< 5.30

Param item: NC(=O)[C@H](CCC(=O)O)NC(=O)[C@H](CCC(=O)O)NC(=O)CCc1ccc(-c2ccc(-c3nc4ccccc4s3)s2)cc1
< 6.00

// repeat for NC(=O)[C@H](CCC(=O)O)NC(=O)[C@H](CCC(=O)O)NC(=O)CCc1ccc(-c2cc(Cl)cc(Cl)c2)cc1 and report
< 6.00

Here is the next compound: NC(=O)[C@H](CCC(=O)O)NC(=O)[C@H](CCC(=O)O)NC(=O)CCc1ccc(-c2cccc(N)c2)cc1
< 6.00

// repeat for NC(=O)CC[C@H](NC(=O)[C@H](CCC(N)=O)NC(=O)CCc1cc(-c2ccc(-c3ccccc3)cc2)no1)C(N)=O and report
< 6.00

Can you check NC(=O)[C@H](CCC(=O)O)NC(=O)[C@H](CCC(=O)O)NC(=O)CCc1ccc(C#Cc2ccccc2)cc1 next?
< 6.00

---

- subject-of-test: MMP-13h (Homo sapiens (Human))
- method-summary: Inhibition constant (Ki) on MMP-13h
- Assay type: biochemical
- setup-conditions: read-out: Ki MMP-13h; human MMP-13
- Text: The inhibition constant Ki of these compounds has been determined according to the protocol described by Devel et al, 2006, J. Biol. Chem. (7). In this table I and also in table II below, “h” corresponds to human. All of the compounds have therefore been evaluated on human MMPs.
recorded-metric: Ki

Sample NC(=O)[C@H](CCC(=O)O)NC(=O)[C@H](CCC(=O)O)NC(=O)CCc1ccc(-c2cccc(CO)c2)cc1 — what was its Ki?
> 5 µM

What do we get for NC(=O)[C@H](CC(=O)O)NC(=O)[C@H](CCC(=O)O)NC(=O)CCc1ccc(-c2ccccc2)cc1 ?
> 1 µM

Also check COc1cccc(-c2ccc(CCC(=O)N[C@@H](CCC(=O)O)C(=O)N[C@@H](CCC(=O)O)C(N)=O)cc2)c1
> 5 µM

---

- subject-of-test: MMP-2h (Homo sapiens (Human))
- method-summary: Inhibition constant (Ki) on MMP-2h
- Type: biochemical
- setup-conditions: read-out: Ki MMP-2h; human MMP-2
pKi: −log10 of the molar value.
recorded-metric: pKi

What does the record list as pKi for O=C(O)CC[C@H](NC(=O)CCc1ccc(-c2ccccc2)cc1)C(=O)N1CCC[C@@H](CC(=O)O)C1 ?
< 6.00

Would you mind doing NC(=O)[C@H](CCC(=O)O)NC(=O)[C@H](CCC(=O)O)NC(=O)CCc1cn(-c2ccccc2)nn1 as well?
< 5.30

Next entry: NC(=O)[C@H](CCCC(=O)O)NC(=O)[C@H](CCC(=O)O)NC(=O)CCc1ccc(-c2cc(-c3ccccc3)cs2)cc1
< 6.00

// next record COc1cccc(-c2ccc(CCC(=O)N[C@@H](CCC(=O)O)C(=O)N[C@@H](CCC(=O)O)C(N)=O)cc2)c1
< 5.30

Now the molecule Cn1ccc(-c2ccc(CCC(=O)N[C@@H](CCC(=O)O)C(=O)N[C@@H](CCC(=O)O)C(N)=O)cc2)n1
< 6.00

Field entry: NCCCC[C@H](NC(=O)[C@H](CCC(=O)O)NC(=O)CCc1ccc(-c2ccccc2)cc1)C(N)=O
< 6.00

Then what about the molecule NC(=O)[C@H](CCC(=O)O)NC(=O)[C@H](CCC(=O)O)NC(=O)CCc1ccc(-c2cccc(O)c2)cc1 ?
< 5.00

And for NC(=O)[C@H](CCC(=O)O)NC(=O)[C@H](CCC(=O)O)NC(=O)CCc1ccc(-c2cccc(CO)c2)cc1 ?
< 5.30

---

I'd appreciate it if you could supply Ki values for the items below.
- subject-of-test: MMP-10h (Homo sapiens (Human))
- Sequence (P09238 99-476): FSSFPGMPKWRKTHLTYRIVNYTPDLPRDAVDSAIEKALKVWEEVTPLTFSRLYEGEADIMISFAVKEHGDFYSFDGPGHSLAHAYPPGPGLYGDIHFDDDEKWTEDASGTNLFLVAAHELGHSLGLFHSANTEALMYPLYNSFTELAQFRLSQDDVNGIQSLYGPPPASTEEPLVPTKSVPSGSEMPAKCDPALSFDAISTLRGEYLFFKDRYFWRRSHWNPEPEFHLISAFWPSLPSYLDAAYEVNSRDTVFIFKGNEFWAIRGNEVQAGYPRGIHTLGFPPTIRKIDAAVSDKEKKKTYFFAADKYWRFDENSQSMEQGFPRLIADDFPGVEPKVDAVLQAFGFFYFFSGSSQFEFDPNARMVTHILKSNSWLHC
- method-summary: Inhibition constant (Ki) on MMP-10h
- Type: biochemical
- setup-conditions: human MMP-10

Look at this molecule and give its reported Ki. NC(=O)[C@H](CCC(=O)O)NC(=O)[C@H](CCC(=O)O)NC(=O)CCc1ccc(-n2cccc2)cc1 [Compound 36]
> 1000 nM

What do you get for NC(=O)[C@H](CCC(=O)O)NC(=O)[C@H](CCCC(=O)O)NC(=O)CCc1ccc(-c2cc(-c3ccccc3)cs2)cc1 [Compound 102] ?
> 5000 nM

// query: NC(=O)CC[C@H](NC(=O)[C@H](CCC(=O)O)NC(=O)CCc1ccc(-c2ccccc2)cc1)C(N)=O [Compound 42]
> 1000 nM

Would you kindly repeat that for NC(=O)CC[C@H](NC(=O)CCc1ccc(-c2ccc(-c3ccccc3)cc2)cc1)C(=O)N[C@@H](CCC(=O)O)C(N)=O [Compound 72] ?
> 1000 nM

---

- subject-of-test: MMP-8h (Homo sapiens (Human), UniProt P22894)
- Sequence (P22894 101-467): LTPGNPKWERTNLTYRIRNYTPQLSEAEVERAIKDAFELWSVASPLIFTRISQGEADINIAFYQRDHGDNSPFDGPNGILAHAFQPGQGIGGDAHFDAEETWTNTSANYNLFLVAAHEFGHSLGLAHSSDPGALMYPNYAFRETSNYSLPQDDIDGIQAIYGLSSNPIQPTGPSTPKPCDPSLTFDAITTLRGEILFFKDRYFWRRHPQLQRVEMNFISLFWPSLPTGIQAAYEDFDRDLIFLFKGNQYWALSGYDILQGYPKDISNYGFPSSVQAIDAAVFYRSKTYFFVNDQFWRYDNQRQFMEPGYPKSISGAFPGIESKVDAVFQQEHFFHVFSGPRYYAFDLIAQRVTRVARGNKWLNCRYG
- method-summary: Inhibition constant (Ki) on MMP-8h
- Format: biochemical
- setup-conditions: read-out: Ki MMP-8h; human MMP-8
recorded-metric: Ki

Look up Ki for this compound: NC(=O)CC[C@H](NC(=O)CCc1cc(-c2ccc(-c3ccccc3)cc2)no1)C(=O)N[C@@H](CCC(=O)O)C(N)=O [Compound 20]
> 1000 nM

Same for C[C@H](NC(=O)CCc1ccc(-c2ccc(-c3ccccc3)cc2)cc1)C(=O)N[C@@H](CCC(=O)O)C(N)=O [Compound 76]
> 1000 nM

Also, NC(=O)[C@H](CCC(=O)O)NC(=O)[C@H](CCC(=O)O)NC(=O)CCc1ccc(-c2cccc(C(=O)O)c2)cc1 [Compound 56] please.
> 1000 nM

---

- subject-of-test: MMP-8h (Homo sapiens (Human))
- method-summary: Inhibition constant (Ki) on MMP-8h
- Format: biochemical
- setup-conditions: read-out: Ki MMP-8h; human MMP-8
recorded-metric: pKi
The scale used: pKi is minus the common logarithm of the concentration in molar units.

Fill blank: measured pKi of the compound Cc1ccsc1-c1ccc(CCC(=O)N[C@@H](CCC(=O)O)C(=O)N[C@@H](CCC(=O)O)C(N)=O)cc1 is ____.
6.12

# repeat for NC(=O)[C@H](Cc1ccc(O)cc1)NC(=O)[C@H](CCC(=O)O)NC(=O)CCc1ccc(-c2ccccc2)cc1
6.57

Entry NC(=O)[C@H](CCC(=O)O)NC(=O)[C@H](CCC(=O)O)NC(=O)CCc1ccc(-c2ccc(-c3ccccc3)cc2)cc1 please
6.88

---

Please provide measured pKi for the entries that follow.
- subject-of-test: MMP-8h (Homo sapiens (Human))
- method-summary: Inhibition constant (Ki) on MMP-8h
- Type: biochemical
- setup-conditions: read-out: Ki MMP-8h; human MMP-8
pKi: −log10 of the molar value.

For NC(=O)[C@H](CCC(=O)O)NC(=O)[C@H](CCC(=O)O)NC(=O)CCc1ccc(-c2cc(Cl)cc(Cl)c2)cc1 , what is its reported pKi?
< 5.30

Cool, now Cn1ccc(-c2ccc(CCC(=O)N[C@@H](CCC(=O)O)C(=O)N[C@@H](CCC(=O)O)C(N)=O)cc2)n1
< 6.00

Now consider NC(=O)[C@H](CCC(=O)O)NC(=O)[C@H](Cc1c[nH]cn1)NC(=O)CCc1ccc(-c2ccc(-c3ccccc3)cc2)cc1 and answer again.
< 6.00

Please answer likewise for NC(=O)[C@H](CCC(=O)O)NC(=O)[C@@H](CCC(=O)O)NC(=O)CCc1cc(-c2ccc(-c3cccc(Cl)c3)cc2)no1
< 5.30

---

For each entry below, report its Ki value.
- subject-of-test: MMP-2h (Homo sapiens (Human), UniProt P08253)
- method-summary: Inhibition constant (Ki) on MMP-2h
- Type: biochemical
- setup-conditions: human MMP-2

// Ki lookup, key: NC(=O)[C@H](CCCC(=O)O)NC(=O)[C@H](CCCC(=O)O)NC(=O)CCc1cc(-c2ccc(-c3cccc(Cl)c3)cc2)no1
> 1000 nM

Same question for NC(=O)[C@H](CCC(=O)O)NC(=O)[C@H](CCC(=O)O)NC(=O)CCc1ccc(-c2ccccc2)cc1 please.
445 nM

Can you handle NC(=O)[C@H](CCC(=O)O)NC(=O)[C@H](CCC(=O)O)NC(=O)CCc1ccc(-c2csnn2)cc1 next?
442 nM

Now consider NC(=O)CC[C@H](NC(=O)CCc1ccc(-c2ccc(-c3ccccc3)cc2)cc1)C(=O)N[C@@H](CCC(=O)O)C(N)=O and answer again.
386 nM

Next compound up: NC(=O)[C@H](CCC(=O)O)NC(=O)[C@H](CCC(=O)O)NC(=O)CCc1ccc(-n2cccc2)cc1
> 1000 nM

// query: NC(=O)[C@H](CCC(=O)O)NC(=O)[C@H](CCCC(=O)O)NC(=O)CCc1cc(-c2ccc(-c3cccc(Cl)c3)cc2)no1
> 1000 nM

Please do the same for NC(=O)[C@H](CCC(=O)O)NC(=O)[C@H](CCC(=O)O)NC(=O)CCc1ccc(-c2cccc([N+](=O)[O-])c2)cc1 as well.
> 1000 nM

Again, but for NC(=O)[C@H](CCC(=O)O)NC(=O)[C@H](CCCC(=O)O)NC(=O)CCc1ccc(-c2cc(-c3ccccc3)cs2)cc1
> 1000 nM
